- test-details: LDH cytotoxic activity assay, Hep3B
- Format: cell-based
- stated-conditions: human, Hep3B cells, 75 μg/mL
- Procedure: The cell lines were cultured in a cell medium (Dulbecco’s modified eagle’s or RPMI 1640) enriched with 10% (v/v) fetal bovine serum and 2% (v/v) Penicillin-Streptomycin (10,000 U/mL). […] Approximately 5 × 10^3 cells in 100 μL were placed into 96-well plates as triplicates and treated with 25, 50, 75, and 100 μg/mL concentrations of test compounds at 37 °C with 5% CO2 for 24 h. LDH activity was obtained by determining absorbance at 492–630 nm using a microplate reader.
Use 40% as the dividing line for cytotoxicity at 24 h, 75 μg/mL, with the line itself on the T side and lower values as F.

In [3]: df
Out[3]:
                                        mol  cat
0  Cc1ccc(-c2cc(-c3cccnc3)nc(N[C@@H]3O[C@H](CO)[C@@H](O)[C@H](O)[C@H]3O)n2)cc1    F
1  Cc1cccc(-c2cc(-c3ccncc3)nc(N[C@@H]3O[C@H](CO)[C@@H](O)[C@H](O)[C@H]3O)n2)c1    F
2  Cc1cccc(-c2cc(-c3ccccn3)nc(N[C@@H]3O[C@H](CO)[C@@H](O)[C@H](O)[C@H]3O)n2)c1    T
3  Cc1cccc(-c2cc(-c3cccnc3)nc(N[C@@H]3O[C@H](CO)[C@@H](O)[C@H](O)[C@H]3O)n2)c1    T
4  Cc1ccc(-c2cc(-c3ccncc3)nc(N[C@@H]3O[C@H](CO)[C@@H](O)[C@H](O)[C@H]3O)n2)cc1    T

Could you now look at the following molecule, please?
Request: Could you please find out whether Cc1ccc(-c2cc(-c3ccccn3)nc(N[C@@H]3O[C@H](CO)[C@@H](O)[C@H](O)[C@H]3O)n2)cc1 has cytotoxicity at 24 h, 75 μg/mL that meets 40% or exceeds it?
Result: F

* * *

- test-details: LDH cytotoxic activity assay, HeLa
- Type: cell-based
- stated-conditions: human, HeLa cells, 25 μg/mL
- Method: The cell lines were cultured in a cell medium (Dulbecco’s modified eagle’s or RPMI 1640) enriched with 10% (v/v) fetal bovine serum and 2% (v/v) Penicillin-Streptomycin (10,000 U/mL). […] Approximately 5 × 10^3 cells in 100 μL were placed into 96-well plates as triplicates and treated with 25, 50, 75, and 100 μg/mL concentrations of test compounds at 37 °C with 5% CO2 for 24 h. LDH activity was obtained by determining absorbance at 492–630 nm using a microplate reader.
Recorded cytotoxicity at 24 h, 25 μg/mL values for a group of compounds are listed next.
Provide only the numeric value, understood in %.

                                   compound  units_label  value_observed
0  Cc1ccc(-c2cc(-c3cccnc3)nc(N[C@@H]3O[C@H](CO)[C@@H](O)[C@H](O)[C@H]3O)n2)cc1            %            12.5
1  CC(=O)OC[C@H]1O[C@@H](Nc2nc(-c3cccnc3)cc(-c3ccccc3C)n2)[C@H](OC(C)=O)[C@@H](OC(C)=O)[C@@H]1OC(C)=O            %            17.2
2  Cc1ccc(-c2cc(-c3ccncc3)nc(N[C@@H]3O[C@H](CO)[C@@H](O)[C@H](O)[C@H]3O)n2)cc1            %              10
3  Cc1ccc(-c2cc(-c3ccccn3)nc(N[C@@H]3O[C@H](CO)[C@@H](O)[C@H](O)[C@H]3O)n2)cc1            %            11.9
4  CC(=O)OC[C@H]1O[C@@H](Nc2nc(-c3cccc(C)c3)cc(-c3ccccn3)n2)[C@H](OC(C)=O)[C@@H](OC(C)=O)[C@@H]1OC(C)=O            %            18.1
5  CC(=O)OC[C@H]1O[C@@H](Nc2nc(-c3cccnc3)cc(-c3cccc(C)c3)n2)[C@H](OC(C)=O)[C@@H](OC(C)=O)[C@@H]1OC(C)=O            %            16.6

Request: Quick one: cytotoxicity at 24 h, 25 μg/mL for O=c1[nH]cc(F)c(=O)[nH]1 [Compound 5FU, 5-fluorouracil, reference compound] ?
Result: 8.83
